test-summary: soluble fraction after stress (log2 fold change); higher = more stays soluble; pooled small domains, quantitative proteomics;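 note: 20 min heating vs room temperature control held 20 min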
measurement-parameters: stress: 75 degC
Reported soluble fraction (log2) values for the following sequences.
I only need the number, thanks.

[
  {
    "entry-sequence": "HMSPSLVEAMRLRMYEMGLNQAKLSELLGVSPSRVSDYLTGRSEPTLKVARDISRKLNIDASIVLG",
    "soluble fraction (log2)": -1.68
  }
]

Fill in the blank: the reported soluble fraction (log2) of `HMASVAKHIRRLRTERHMTQGDLAEKLFVTRQTVSAWETGKAQPDLETLERIAVVLGVEVTELIYGAP` is ____. -0.707

One more sequence: `HMVERLVVSPGAGVFAPNKAIANGTRISVGDVLGMVGEQEVRSLFDGVLQSFISVDGERLTAHQPVAWLRT` -0.587

Lookup `HMTETNSVTINERLTLYRRSRSGRWQARVKLNTGEWHRFSTGTADFEKAKESAHRELHNVGFRAENNLPQ` -1.16
